Test system: SC27B
Test: qHTS profiling for inhibitors of Plasmodium falciparum proliferation (AID 504749); further: nearly all actives have a fitted effect of over 60% in size
Conditions: P. falciparum in erythrocytes, SYBR Green DNA, 72 h; series mostly up to 28.7 µM
Experimental: NIH National Institute of Allergy and Infectious Diseases [NIAID] NIH Chemical Genomics Center [NCGC] […] Because mature erythrocytes lack DNA, only Plasmodium-derived DNA is detected. NCGC Assay Protocol Summary: The SYBR Green viability assay was adapted from a method described previously (Plouffe et al., 2008). […] The following morning, fluorescence intensity at 485(14) nm excitation and 535(25) nm emission wavelengths was measured on an EnVision (Perkin Elmer) plate reader. […]
Inconclusive results are not listed. The source made the active and inactive calls. The call rests on the fitted dose curve; in most records, active means well fitted inhibition curve with a large enough effect; inconclusive means small, poorly fitted or top-dose-only effect; inactive means flat fitted curve, though single readings scatter.
Your answer must be one of the following: active, inactive

molecule | target-of-assay | category-label
O=C(CCCN1CCN2CCCC2C1)c1ccc(F)cc1 (stereo unspecified) | SC27B | inactive
C=C(C)C1CC=C(C)CC1 (stereo unspecified) | SC27B | inactive
CCN(CC)CCCC(C)Nc1cc(/C=C/c2ccccc2Cl)nc2cc(Cl)ccc12 (stereo unspecified) | SC27B | active
O=C(O)c1cc(N=Nc2ccc(O)c(C(=O)O)c2)ccc1O | SC27B | inactive
CSc1nc2cc(Oc3cccc(Cl)c3Cl)c(Cl)cc2[nH]1 | SC27B | active
CC(C)(COP(=O)(O)OP(=O)(O)OC[C@H]1O[C@@H](n2cnc3c(N)ncnc32)[C@H](O)[C@@H]1OP(=O)(O)O)C(O)C(=O)NCCC(=O)NCCS (stereo partly specified) | SC27B | inactive
Cc1c(C)c2c(c(C)c1OC(=O)CCC(=O)O)CC[C@@](C)(CCC[C@H](C)CCC[C@H](C)CCCC(C)C)O2 | SC27B | inactive
CN1CCc2c(c3ccccc3n2Cc2ccccc2)C1 | SC27B | inactive
O=C(O)c1ccc(NC(=O)[C@H](Cc2ccc(O)cc2)NC(=O)c2ccccc2)cc1 | SC27B | inactive
CCCCO | SC27B | inactive

Okay, now this molecule:
Dear all, I need the recorded test outcome for OCl , thank you. inactive

---

assay: qHTS profiling for inhibitors of Plasmodium falciparum proliferation (AID 504749); further: nearly all actives have a fitted effect of over 60% in size;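 on activity, negative = inhibition: 0% = DMSO vehicle and full inhibition = artemisinin control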; settings: P. falciparum in erythrocytes, SYBR Green DNA, 72 h; at 28.7 µM (top of the series); parasite line B
Inconclusive results are not listed.
measure: activity, negative = inhibition (%)
Return type: number; implicit unit %.

molecule | measure | unit-info | observed
CC1(C)S[C@@H]2[C@H](NC(=O)C3(N)CCCCC3)C(=O)N2[C@H]1C(=O)O | activity, negative = inhibition | % | 10.4
CC(CC=O)CCCC(C)(C)O (stereo not given) | activity, negative = inhibition | % | 2.33
Cc1nc(NS(=O)(=O)c2ccc(N)cc2)nc(C)c1Br | activity, negative = inhibition | % | -0.222
O=C(OCc1ccccc1)c1ccc(O)cc1 | activity, negative = inhibition | % | 11.3
Cc1ccc(S(=O)(=O)O)cc1C | activity, negative = inhibition | % | 4.98

What does the record list as activity, negative = inhibition for CC(=O)Nc1c(I)c(C(=O)O)c(I)c(N(C)C(C)=O)c1I ? -11.8

# iterate: CCCc1nc(C(C)(C)O)c(C(=O)OCc2oc(=O)oc2C)n1Cc1ccc(-c2ccccc2-c2nn[nH]n2)cc1 -20.3

# iterate: C[C@H](CCCC(C)(C)O)[C@H]1CC[C@H]2[C@@H]3CC=C4C[C@@H](O)CC[C@]4(C)[C@H]3CC[C@]12C 17.1

# iterate: CS(=O)(=O)c1ccc([C@@H](O)[C@@H](COC(=O)CN)NC(=O)C(Cl)Cl)cc1 -23.7

# iterate: CC(C)(C)c1ccc2c(S(=O)(=O)O)c(C(C)(C)C)ccc2c1 12.2

These data points were gathered from PubChem BioAssay (NCATS).
